system: Fibroblast; experiment: Multiplex assay against human fibroblast; type: toxicity, cell-based; conditions: 12 h, 1 µM, compound concentration 1 uM, replicate 2
Hi there, I'd appreciate the recorded Population Healthy Nuclei (%) for every entry that follows.
Please answer using a numeric value trailed by its unit.

Problem: Request the reported Population Healthy Nuclei (%) associated with CC(C)c1noc(N2CCC(COc3ccc(-c4ccc(S(C)(=O)=O)cc4)nc3)CC2)n1 [GSK-1292263]
Solution: 85%

Problem: Request the reported Population Healthy Nuclei (%) associated with CC(C)NC(=O)N1CC[C@H](NC2=Nc3cc(F)ccc3N(CC(F)F)c3ccc(Cl)cc32)C1
Solution: 89%

Problem: Request the reported Population Healthy Nuclei (%) associated with Cc1c[nH]c2nccc(Oc3c(F)cc(Nc4cc(Cl)nc(N)n4)cc3F)c12 [BAY-549]
Solution: 73%

Problem: Request the reported Population Healthy Nuclei (%) associated with COc1ccc(-c2ccc3ncc4c(c3c2)n(-c2ccc(N3CCNCC3)c(C(F)(F)F)c2)c(=O)n4C)cn1.O=C(O)/C=C\C(=O)O [BGT-226]
Solution: 45%

Problem: Request the reported Population Healthy Nuclei (%) associated with CN1CCN(Cc2ccc(Nc3ncc(Cl)c(Nc4ccccc4S(=O)(=O)N(C)C)n3)cc2)CC1 [DUBERMATINIB]
Solution: 83%

Problem: Request the reported Population Healthy Nuclei (%) associated with COc1cc(Nc2nccc(-c3cnn4nc(OC)ccc34)n2)cc(C(F)(F)F)c1
Solution: 86%

Problem: Request the reported Population Healthy Nuclei (%) associated with CNC(=O)Nc1ccc(-c2nc(N3CC4CCC(C3)O4)c3cnn(C4CCC5(CC4)OCCO5)c3n2)cc1
Solution: 55%

Problem: Request the reported Population Healthy Nuclei (%) associated with CC(C)OC(=O)N1CCC(Oc2ncnc3c2cnn3-c2ccc(S(C)(=O)=O)cc2F)CC1
Solution: 91%

Problem: Request the reported Population Healthy Nuclei (%) associated with O=c1cc(N2CCOCC2)oc2c(-c3cccc4c3sc3ccccc34)cccc12
Solution: 77%

Problem: Request the reported Population Healthy Nuclei (%) associated with C[C@]12CC[C@@H]3c4ccc(O)cc4CC[C@H]3[C@@H]1CC[C@@H]2O [ESTRADIOL]
Solution: 86%

Problem: Request the reported Population Healthy Nuclei (%) associated with CC(C)(C)NC[C@H](O)COc1nsnc1N1CCOCC1 [TIMOLOL]
Solution: 88%

Problem: Request the reported Population Healthy Nuclei (%) associated with O=C(c1cc2c(cc1F)OC(c1ccc(F)cc1)(c1ccc(Cl)cc1Cl)O2)N1CCOCC1 (configuration not stated)
Solution: 68%

Problem: Request the reported Population Healthy Nuclei (%) associated with CCOC(=O)Nc1cc(-c2ccc(C)c(NS(C)(=O)=O)c2)nn2c(C)nnc12
Solution: 34%

Problem: Request the reported Population Healthy Nuclei (%) associated with O=c1[nH]c2ccccc2n1C1CCN(Cc2ccc(-c3[nH]c4cc5ncnc5cc4nc3-c3ccccc3)cc2)CC1
Solution: 19%

Problem: Request the reported Population Healthy Nuclei (%) associated with CC(C)Oc1ccccc1C(=O)Nc1ccccc1C(=O)Nc1cccc(S(=O)(=O)C(F)(F)F)c1
Solution: 74%

Problem: Request the reported Population Healthy Nuclei (%) associated with CCCSc1nc(N[C@@H]2C[C@H]2c2ccc(F)c(F)c2)c2nnn([C@@H]3C[C@H](OCCO)[C@@H](O)[C@H]3O)c2n1 [TICAGRELOR]
Solution: 93%

Problem: Request the reported Population Healthy Nuclei (%) associated with Cl.O=C(O)c1cc(-c2ccc(C3CCNCC3)cc2)c2ccc(-c3ccc(C(F)(F)F)cc3)cc2c1
Solution: 83%

Problem: Request the reported Population Healthy Nuclei (%) associated with CC(C)CC(=O)Nc1[nH]nc2c1CN(C(=O)C1CCN(C)CC1)C2(C)C [PHA-793887]
Solution: 31%

Problem: Request the reported Population Healthy Nuclei (%) associated with CNC(=O)Nc1ccc2c(c1)[C@@]1(CC2)OC(=O)N(CC(=O)N(Cc2ccc(F)cc2)[C@@H](C)C(F)(F)F)C1=O [A-486]
Solution: 21%

Problem: Request the reported Population Healthy Nuclei (%) associated with C=CC(=O)Nc1cccc(Oc2nc(Nc3ccc(N4CCN(C)CC4)cc3OC)ncc2Cl)c1
Solution: 48%

Problem: Request the reported Population Healthy Nuclei (%) associated with COc1ccccc1CN[C@H]1C2CCN(CC2)[C@H]1C(c1ccccc1)c1ccccc1 [CP-96345]
Solution: 92%

Problem: Request the reported Population Healthy Nuclei (%) associated with C=CC(=O)Nc1cccc(Sc2nc(Nc3ccc(N4CCN(C)CC4)cc3)ncc2Cl)c1
Solution: 6%

Problem: Request the reported Population Healthy Nuclei (%) associated with Cc1ccccc1C(c1ccccc1C)N1C2CCC1CC(O)(c1ccccc1)C2 (configuration not stated)
Solution: 81%

Problem: Request the reported Population Healthy Nuclei (%) associated with CCc1nn(CCCN2CCN(c3cccc(Cl)c3)CC2)c(=O)n1CCOc1ccccc1.Cl [NEFAZODONE HYDROCHLORIDE]
Solution: 89%

Problem: Request the reported Population Healthy Nuclei (%) associated with COC(=O)C1=C(C)NC(C)=C(C(=O)OCCCN2CCC(c3ccccc3)(c3ccccc3)CC2)[C@H]1c1cccc([N+](=O)[O-])c1 [NIGULDIPINE]
Solution: 78%

Problem: Request the reported Population Healthy Nuclei (%) associated with Cc1cccc(CN2CCN(C(c3ccccc3)c3ccc(Cl)cc3)CC2)c1.Cl.Cl (configuration not stated)
Solution: 79%

Problem: Request the reported Population Healthy Nuclei (%) associated with Cc1nc(N2CC[C@H](O)C2)ncc1-c1cc(C(F)(F)F)cc2[nH]ncc12
Solution: 33%

Problem: Request the reported Population Healthy Nuclei (%) associated with C=CC(=O)Nc1ccc2[nH]c(=O)n(C3CCN(Cc4ccc(-c5nc6cc[nH]c(=O)c6cc5-c5ccccc5)cc4)CC3)c2c1 [Borussertib]
Solution: 31%

Problem: Request the reported Population Healthy Nuclei (%) associated with COc1cc2ncn(-c3cc(OCc4ccccc4C(F)(F)F)c(C(N)=O)s3)c2cc1OC [GW843682X]
Solution: 80%

Problem: Request the reported Population Healthy Nuclei (%) associated with CC1=C(C(=O)Nc2cc3cn[nH]c3cc2F)C(c2ccc(C(F)(F)F)cc2)CC(=O)N1 (configuration not stated)
Solution: 93%

Problem: Request the reported Population Healthy Nuclei (%) associated with Cc1ccc2c(c1)c1c(n2CCc2ccc(C)nc2)CCN(C)C1 [LATREPIRDINE]
Solution: 67%

Problem: Request the reported Population Healthy Nuclei (%) associated with Cc1ccc(C)c(Oc2ccncc2C(=O)N2CCN(C3CC3)c3ccccc32)c1
Solution: 75%
